Measured values drawn from paper PMC4336329 for this set.

- TARGET SYSTEM: human ether-à-go-go-related gene (hERG) potassium channel (human);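 further: peak tail current of the secondary pulse compared with the same well before compound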
- Sequence (Q12809 whole entry, looked up): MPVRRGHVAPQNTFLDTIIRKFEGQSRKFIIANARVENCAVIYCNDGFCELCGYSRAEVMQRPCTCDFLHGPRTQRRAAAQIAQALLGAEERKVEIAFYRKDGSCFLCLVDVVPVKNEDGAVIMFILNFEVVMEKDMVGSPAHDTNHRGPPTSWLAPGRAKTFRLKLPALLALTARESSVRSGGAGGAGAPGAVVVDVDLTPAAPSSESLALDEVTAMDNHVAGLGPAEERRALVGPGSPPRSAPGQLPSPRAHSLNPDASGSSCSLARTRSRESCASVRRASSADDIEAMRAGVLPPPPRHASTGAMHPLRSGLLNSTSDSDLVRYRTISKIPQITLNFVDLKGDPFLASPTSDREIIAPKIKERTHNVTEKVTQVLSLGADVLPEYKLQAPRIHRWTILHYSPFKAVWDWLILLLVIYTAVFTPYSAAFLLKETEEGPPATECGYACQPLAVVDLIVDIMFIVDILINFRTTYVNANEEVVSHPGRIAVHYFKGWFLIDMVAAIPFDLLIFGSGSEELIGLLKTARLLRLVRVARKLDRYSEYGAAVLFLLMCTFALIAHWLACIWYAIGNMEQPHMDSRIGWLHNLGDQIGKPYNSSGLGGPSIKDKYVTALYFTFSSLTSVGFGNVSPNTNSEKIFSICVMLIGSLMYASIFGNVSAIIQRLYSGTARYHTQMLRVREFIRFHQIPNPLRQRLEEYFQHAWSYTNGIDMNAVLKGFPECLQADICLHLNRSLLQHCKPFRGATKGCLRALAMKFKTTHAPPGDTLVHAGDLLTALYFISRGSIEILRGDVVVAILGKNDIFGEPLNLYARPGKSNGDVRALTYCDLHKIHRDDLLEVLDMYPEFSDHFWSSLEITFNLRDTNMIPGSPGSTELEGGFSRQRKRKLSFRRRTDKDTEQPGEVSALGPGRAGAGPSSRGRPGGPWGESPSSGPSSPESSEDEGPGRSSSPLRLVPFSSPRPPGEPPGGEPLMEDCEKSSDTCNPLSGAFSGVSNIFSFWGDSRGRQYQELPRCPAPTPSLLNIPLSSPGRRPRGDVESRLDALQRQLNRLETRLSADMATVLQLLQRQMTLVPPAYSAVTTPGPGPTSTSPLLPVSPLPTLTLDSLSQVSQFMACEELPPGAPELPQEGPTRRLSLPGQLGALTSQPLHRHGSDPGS
- METHOD DESCRIPTION: primary screen, population patch clamp on CHO cells stably expressing hERG; higher = less effect of the substance
About 14,000 (4.5%) of roughly 310,000 compounds showed an effect of 50% or more. Effects have a minus sign here. The entries come from a sample that favours strong results as a whole.
Field: hERG current change (%, negative = inhibition) at 10uM. Provide a value for each of the molecules that follow.
Give bare numbers, in %.

Guide cases for hERG current change (%, negative = inhibition) at 10uM, answers given:
MOLECULE	RESULT
CCCc1ccc(OCCNC(=O)CC)cc1	-10.9
CCC(NC(=O)CNC(=O)CNC(=O)c1ccc(Cl)cc1Cl)c1ccc(C)cc1 (centres unmarked)	22.2
COc1ccc(CNC(=O)Cn2ncn3cccc3c2=O)cc1	3.12
Cc1ccc(C(O)(C(=O)NNS(=O)(=O)c2ccc(C)cc2)c2ccc(C)cc2)cc1	-5.55

Input: Bench note: what hERG current change (%, negative = inhibition) at 10uM did COc1ccc(NC(=S)N2c3ccccc3CC2C)cc1OC (centres unmarked) show?
Output: -5.96
